FYI, the data here is from patent US20240018237A1.

The entries below come with measured pEC50 values attached.
Target: T1, human ROR1 (full-length, on the cell surface) (human, UniProt Q01973 30-937)
T1 construct: whole, on cells; the tumour cell lines carry their own ROR1; also called Ba/F3-ROR1 cells; Jeko-1
T1 sequence (Q01973 30-937): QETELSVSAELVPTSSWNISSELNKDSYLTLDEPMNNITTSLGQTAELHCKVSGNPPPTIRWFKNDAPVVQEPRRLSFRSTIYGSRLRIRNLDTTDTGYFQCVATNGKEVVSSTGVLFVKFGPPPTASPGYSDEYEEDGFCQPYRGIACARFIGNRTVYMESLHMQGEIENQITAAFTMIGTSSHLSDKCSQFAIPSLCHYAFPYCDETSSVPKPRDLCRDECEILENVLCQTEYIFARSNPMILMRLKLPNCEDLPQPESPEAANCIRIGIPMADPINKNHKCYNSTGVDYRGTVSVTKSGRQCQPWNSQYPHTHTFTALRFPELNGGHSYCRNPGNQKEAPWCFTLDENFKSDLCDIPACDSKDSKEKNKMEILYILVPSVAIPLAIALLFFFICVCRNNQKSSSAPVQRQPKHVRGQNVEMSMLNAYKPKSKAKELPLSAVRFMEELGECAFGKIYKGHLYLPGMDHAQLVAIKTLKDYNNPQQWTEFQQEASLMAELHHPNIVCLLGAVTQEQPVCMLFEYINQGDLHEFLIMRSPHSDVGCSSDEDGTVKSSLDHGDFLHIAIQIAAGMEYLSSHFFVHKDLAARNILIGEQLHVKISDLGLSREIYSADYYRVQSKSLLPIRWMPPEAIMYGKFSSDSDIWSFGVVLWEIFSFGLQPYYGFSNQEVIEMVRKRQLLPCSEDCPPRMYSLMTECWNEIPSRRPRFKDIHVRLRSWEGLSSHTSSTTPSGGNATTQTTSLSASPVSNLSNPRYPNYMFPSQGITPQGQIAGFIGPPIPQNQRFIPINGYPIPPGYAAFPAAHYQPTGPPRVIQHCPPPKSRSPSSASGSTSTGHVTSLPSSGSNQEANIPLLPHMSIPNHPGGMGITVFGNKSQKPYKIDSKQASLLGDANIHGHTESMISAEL
Assay: flow cytometry, A549 cells
When answering, recall that pEC50 equals minus log10 of the concentration in mol/L, and write that number alone.

Take a look at these entries with their results.
INSERT INTO measurements (binder, recorded_metric, meas_value) VALUES
  ('19F6-Hu35V1 (antibody, human IgG1, kappa, V domains shown, humanized, human IgG1 / kappa) VH: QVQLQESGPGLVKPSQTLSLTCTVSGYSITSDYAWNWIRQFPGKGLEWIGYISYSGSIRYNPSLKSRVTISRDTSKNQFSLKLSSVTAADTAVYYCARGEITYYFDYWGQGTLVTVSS VL: ETTLTQSPAFMSATPGDKVTISCKASTSIDDDMNWYQQKPGEPPKLIISEGNTLRPGIPPRFSSSGYGTDFTFTINKIKSEDAATYYCLQSNDLPLTFGQGTKLEIKR', 'pEC50', 10.10),
  ('19F6-Hu35V8 (antibody, human IgG1, kappa, V domains shown, humanized, human IgG1 / kappa) VH: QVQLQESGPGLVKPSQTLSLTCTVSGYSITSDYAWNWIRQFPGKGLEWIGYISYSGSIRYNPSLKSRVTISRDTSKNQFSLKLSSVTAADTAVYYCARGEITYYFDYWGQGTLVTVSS VL: ETTLTQSPAFMSATPGDKVTISCKASTDIDNDMNWYQQKPGKPPKLIISEGNTLRPGIPPRFSSSGYGTDFTFTINNIQSEDAATYYCLQSNDLPLTFGQGTKLEIKR', 'pEC50', 10.05);

Shift focus to the following entry.
Value lookup for pEC50; key = 38F8-Hu58 (antibody, human IgG1, kappa, V domains shown, humanized, human IgG1 / kappa) VH: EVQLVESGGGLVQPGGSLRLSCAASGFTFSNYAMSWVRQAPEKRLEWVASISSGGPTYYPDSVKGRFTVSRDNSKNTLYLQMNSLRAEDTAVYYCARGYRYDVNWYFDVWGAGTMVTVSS VL: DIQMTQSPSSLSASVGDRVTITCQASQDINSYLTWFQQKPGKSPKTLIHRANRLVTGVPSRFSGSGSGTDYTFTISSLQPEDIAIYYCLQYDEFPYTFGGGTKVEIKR
9.49
